Tested on: immature female rats
Assay: In vivo ovulation model: FSH-matured follicles in immature rats, oocytes in oviduct counted 18 hours after administration
Design: species or system rat
Applied Conditions: subcutaneous, compound alone without hCG, FSH pretreated rats
Description: The role of FSH in any ovulation induction regimen is for promoting follicular development and maturation, not ovulation induction. All injections were subcutaneous. Results are expressed as mean plus or minus standard deviations. […] The effects of Compound 1, a known PDE inhibitor, are shown. Data represent average number of oocytes in oviducts of all rats in each group and frequency of ovulating rats. […] Results are expressed as mean plus or minus standard deviations. […]
Measure: ovulation (oocytes in oviduct)

• COc1ccc(C(=O)Nc2c(Cl)cncc2Cl)cc1OC1CCCC1 [Compound 2] = induction of ovulation
• CCOc1cc2cc(CO)c(CO)c(-c3ccnc(-n4nc(-c5cccnc5)c5ccccc5c4=O)c3)c2cc1OCC.Cl [Compound 3] = induction of ovulation
• COc1ccc([C@]2(C#N)CC[C@@H](C(=O)O)CC2)cc1OC1CCCC1 [Compound 1] = induction of ovulation
